conditions: 310.15 K; 101.33 kPa; Liquid; Vibrating tube method
READOUT_LABEL: mass density (kg/m3)

# COMPOUND, mass density, kg/m3
measured = [
    ("CCCC(=O)[O-].C[NH2+]CCO [N-methyl-2-hydroxyethylammonium butanoate]", 1031.18),
    ("CC(=O)[O-].C[NH2+]CCO [N-methyl-2-hydroxyethylammonium acetate]", 1093.62),
    ("CC(C)C(=O)[O-].C[NH2+]CCO [2-hydroxy-N-methylethanaminium isobutyrate]", 1035.62),
    ("C[NH2+]CCO.O=C[O-] [2-hydroxy-N-methylethanaminium formate]", 1121.55),
    ("CCCCC(=O)[O-].C[NH2+]CCO [2-hydroxy-N-methylethanaminium pentanoate]", 1008.16),
    ("CCC(=O)[O-].C[NH2+]CCO [2-hydroxy-N-methylethanaminium propionate]", 1063.48),
]

Hello, the source for this data is the NIST ThermoML archive (doi:10.1021/je900550v), in case you need it.
